target: F508delCFTR in primary hBE cells with F508del/F508del CFTR mutation (Homo sapiens, UniProt P13569, DEL508-508); construct: cells isolated from CF patients with the homozygous mutation; endogenous in cells; assay: Transepithelial Clamp Circuit on Human Bronchial Epithelial Cells Conductance Assay (hBE-TECC); conditions: primary hBE cells F508del/F508del, 18-24 hours at 37° C., equivalent short circuit current, 6 concentrations
Sequence (P13569 with tags, fused parts or gaps DEL508-508): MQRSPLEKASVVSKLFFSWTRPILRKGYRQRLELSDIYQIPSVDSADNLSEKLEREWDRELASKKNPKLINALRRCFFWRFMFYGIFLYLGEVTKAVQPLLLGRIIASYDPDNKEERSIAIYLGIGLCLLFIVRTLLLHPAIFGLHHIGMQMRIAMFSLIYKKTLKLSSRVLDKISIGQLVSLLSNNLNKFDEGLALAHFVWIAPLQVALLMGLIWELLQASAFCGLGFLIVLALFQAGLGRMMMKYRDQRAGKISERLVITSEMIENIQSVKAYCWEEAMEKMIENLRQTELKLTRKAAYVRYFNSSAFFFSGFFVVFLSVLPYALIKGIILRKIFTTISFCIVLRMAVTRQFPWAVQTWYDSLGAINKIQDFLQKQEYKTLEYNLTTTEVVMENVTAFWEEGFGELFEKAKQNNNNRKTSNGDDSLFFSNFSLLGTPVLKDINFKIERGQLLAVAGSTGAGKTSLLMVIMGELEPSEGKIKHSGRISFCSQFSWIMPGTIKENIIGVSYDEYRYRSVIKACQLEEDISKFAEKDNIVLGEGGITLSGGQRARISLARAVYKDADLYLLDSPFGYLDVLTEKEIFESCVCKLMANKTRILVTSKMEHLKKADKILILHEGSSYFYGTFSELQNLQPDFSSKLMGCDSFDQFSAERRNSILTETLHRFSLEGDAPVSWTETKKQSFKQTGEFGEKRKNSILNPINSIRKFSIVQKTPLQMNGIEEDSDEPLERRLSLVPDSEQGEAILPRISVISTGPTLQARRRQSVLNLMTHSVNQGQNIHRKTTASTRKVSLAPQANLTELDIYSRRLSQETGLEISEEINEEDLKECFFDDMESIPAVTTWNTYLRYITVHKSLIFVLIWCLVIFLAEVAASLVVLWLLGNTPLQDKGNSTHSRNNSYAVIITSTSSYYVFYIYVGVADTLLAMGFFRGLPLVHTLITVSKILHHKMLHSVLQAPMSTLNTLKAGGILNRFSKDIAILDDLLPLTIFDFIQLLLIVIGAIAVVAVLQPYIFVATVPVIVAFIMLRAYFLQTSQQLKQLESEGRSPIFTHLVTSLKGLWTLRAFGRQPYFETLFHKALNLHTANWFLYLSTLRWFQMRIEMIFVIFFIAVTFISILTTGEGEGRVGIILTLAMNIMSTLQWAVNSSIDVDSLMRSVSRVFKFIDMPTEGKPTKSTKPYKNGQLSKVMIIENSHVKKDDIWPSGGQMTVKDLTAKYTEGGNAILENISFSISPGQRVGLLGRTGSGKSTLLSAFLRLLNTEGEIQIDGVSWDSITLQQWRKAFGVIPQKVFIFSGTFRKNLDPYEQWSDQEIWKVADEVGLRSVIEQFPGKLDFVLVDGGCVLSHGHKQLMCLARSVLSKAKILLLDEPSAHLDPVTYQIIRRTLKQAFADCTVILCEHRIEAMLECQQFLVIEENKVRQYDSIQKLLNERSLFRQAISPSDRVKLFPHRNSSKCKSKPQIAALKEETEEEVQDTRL
QUANTITY MEASURED: EC50 (nM)

                           smiles_structure  units_of_measure  result_value
0  C[C@]1(C(=O)N[C@@H]2C[C@H](C3(C(=O)N4C[C@H](O)[C@@H](O)C4)CC3)Oc3cc(OC(F)(F)F)ccc32)COc2cc3c(cc21)OC(F)(F)O3                nM           282
1  CC1(c2cc3cc(NC(=O)[C@@]4(C)COc5cc6c(cc54)OC(F)(F)O6)c(F)cc3n2C[C@@H](O)CO)COC1                nM           352
2  COc1ccc2c(c1)O[C@@H](c1ccc(C(=O)O)cc1)C[C@H]2NC(=O)[C@]1(C)CCc2c1ccc1c2OCO1                nM           220

----------
biological target: F508delCFTR cell surface expression in CFBE41o-F508delCFTR-HRP cells (Homo sapiens, UniProt P13569, DEL508-508); construct: fused on or other part: Horseradish peroxidase (HRP) reporter inserted in the fourth exofacial (extracellular) loop of CFTR; expression is doxycycline-inducible; assay: Cell Surface Expression-Horse Radish Peroxidase (CSE-HRP) Assay; settings: CFBE41o-F508delCFTR-HRP cells, 18-24 hours at 33° C., 8-point curve, highest concentration 20 μM
Sequence (P13569 with tags, fused parts or gaps DEL508-508 limits assumed): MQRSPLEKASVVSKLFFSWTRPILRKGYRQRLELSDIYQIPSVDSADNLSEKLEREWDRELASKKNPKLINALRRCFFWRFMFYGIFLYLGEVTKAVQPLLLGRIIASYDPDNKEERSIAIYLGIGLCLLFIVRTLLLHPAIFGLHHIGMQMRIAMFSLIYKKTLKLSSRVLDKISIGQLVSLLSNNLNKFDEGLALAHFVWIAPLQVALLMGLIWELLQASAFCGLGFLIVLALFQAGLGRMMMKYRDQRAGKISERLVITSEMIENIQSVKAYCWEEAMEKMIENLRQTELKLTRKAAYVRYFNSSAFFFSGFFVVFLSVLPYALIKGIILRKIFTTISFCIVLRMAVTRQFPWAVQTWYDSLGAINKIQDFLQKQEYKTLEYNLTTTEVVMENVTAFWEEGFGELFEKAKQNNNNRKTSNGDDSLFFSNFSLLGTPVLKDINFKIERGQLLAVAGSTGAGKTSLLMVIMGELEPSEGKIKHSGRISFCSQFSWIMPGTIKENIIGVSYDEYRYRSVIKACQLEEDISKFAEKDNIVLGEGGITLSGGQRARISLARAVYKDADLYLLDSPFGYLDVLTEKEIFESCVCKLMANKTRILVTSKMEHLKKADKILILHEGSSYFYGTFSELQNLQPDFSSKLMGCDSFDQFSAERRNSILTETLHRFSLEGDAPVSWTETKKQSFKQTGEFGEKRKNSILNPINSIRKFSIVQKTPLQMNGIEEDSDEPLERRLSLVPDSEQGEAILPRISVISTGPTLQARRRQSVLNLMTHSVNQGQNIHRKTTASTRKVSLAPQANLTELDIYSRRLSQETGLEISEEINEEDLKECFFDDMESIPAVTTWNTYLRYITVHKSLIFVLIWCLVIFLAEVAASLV
Sequence (P13569 919-1480 limits assumed, stated change not applied): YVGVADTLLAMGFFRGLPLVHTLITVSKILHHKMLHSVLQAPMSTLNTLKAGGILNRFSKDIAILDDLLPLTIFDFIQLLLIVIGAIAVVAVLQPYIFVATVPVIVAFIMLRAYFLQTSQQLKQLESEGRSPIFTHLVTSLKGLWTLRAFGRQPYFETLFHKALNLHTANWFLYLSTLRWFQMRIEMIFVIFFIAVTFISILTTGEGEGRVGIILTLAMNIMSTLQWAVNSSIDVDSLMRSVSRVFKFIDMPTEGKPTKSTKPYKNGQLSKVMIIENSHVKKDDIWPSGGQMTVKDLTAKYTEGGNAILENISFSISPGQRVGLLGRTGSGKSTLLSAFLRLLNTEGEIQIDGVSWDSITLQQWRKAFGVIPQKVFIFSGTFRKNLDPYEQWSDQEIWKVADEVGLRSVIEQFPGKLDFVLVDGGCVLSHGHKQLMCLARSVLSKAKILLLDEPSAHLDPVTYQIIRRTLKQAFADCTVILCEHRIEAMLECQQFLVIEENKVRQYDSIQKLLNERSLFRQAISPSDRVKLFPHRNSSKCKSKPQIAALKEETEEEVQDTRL
QUANTITY MEASURED: EC50 (nM)

>>> print(df.to_string())
                                   compound  quantity_measured  result_value
0  COc1ccc2c(c1)O[C@@H](c1ccc(C(=O)O)nc1)C[C@H]2NC(=O)[C@@]1(C)COc2cc3c(cc21)OC(F)(F)O3               EC50           335
1  COc1ccc2c(c1)O[C@H](c1ccc(OCc3ccccc3)nn1)C[C@H]2NC(=O)[C@@]1(C)COc2cc3c(cc21)OC(F)(F)O3 (single isomer, unassigned)               EC50           260
2  Cc1ccc(NC(=O)[C@@]2(C)COc3cc4c(cc32)OC(F)(F)O4)nc1-c1cccc(C#N)c1               EC50           570

----------
target: F508delCFTR cell surface expression in CFBE41o-F508delCFTR-HRP cells (Homo sapiens, UniProt P13569, DEL508-508); construct: fused on or other part: Horseradish peroxidase (HRP) reporter inserted in the fourth exofacial (extracellular) loop of CFTR; expression is doxycycline-inducible; assay: Cell Surface Expression-Horse Radish Peroxidase (CSE-HRP) Assay; format: cell-based; conditions: maximum at any tested concentration, normalized to on-plate positive control (3 μM)
Item-by-item account of Maximum % activity (%)

COMPOUND	Maximum % activity (%)
CC1(C(=O)Nc2nnc(-c3ccc(C(=O)O)cc3)s2)COc2cc3c(cc21)OC(F)(F)O3 (stereo not shown) [Example 53]	1
COc1ccc2c(c1)O[C@@H](c1ccc(C(=O)N3CCC(O)CC3)cn1)C[C@H]2NC(=O)[C@@]1(C)COc2cc3c(cc21)OC(F)(F)O3 [Example 212]	119
C[C@]1(C(=O)N[C@@H]2C[C@H]([C@H]3CC[C@H](C(=O)O)CC3)Oc3cc(OC(F)(F)F)ccc32)CCc2cc3c(cc21)OC(F)(F)O3 [Example 167]	135
COc1ccc2c(c1)O[C@H]([C@H]1CC[C@H](C(=O)O)CC1)C[C@@H]2NC(=O)[C@@]1(C)COc2cc3c(cc21)OC(F)(F)O3 [Example 154]	103
Cc1ccc(NC(=O)C2(C)CCc3c2ccc2c3OCO2)cc1-c1cccc(C(=O)O)c1 (stereo not shown) [Example 36]	79
CCCN(CCO)C(=O)c1ccc([C@H]2C[C@@H](NC(=O)[C@@]3(C)COc4cc5c(cc43)OC(F)(F)O5)c3ccc(OC)cc3O2)nc1 [Example 209]	122
CC(O)CNC(=O)[C@H]1CC[C@H]([C@H]2C[C@@H](NC(=O)[C@@]3(C)COc4cc5c(cc43)OC(F)(F)O5)c3ccc(OC(F)(F)F)cc3O2)CC1 (stereo partly shown) [Example 258]	174
CC1CN(c2cccc(NC(=O)[C@@]3(C)COc4cc5c(cc43)OC(F)(F)O5)n2)CC1C(=O)O (stereo partly shown) [Example 116]	136
C[C@]1(C(=O)Nc2cccc(N3CCOC(CO)C3)n2)COc2cc3c(cc21)OC(F)(F)O3 (stereo partly shown) [Example 87]	100
COC(=O)c1ccc(-c2cccc(NC(=O)C3(C)COc4cc5c(cc43)OC(F)(F)O5)c2)cc1 (stereo not shown) [Example 66]	160
C[C@]1(C(=O)N[C@@H]2C[C@H]([C@H]3CC[C@H](C(=O)N4CCN(CCO)CC4)CC3)Oc3cc(OC(F)(F)F)ccc32)COc2cc3c(cc21)OC(F)(F)O3 [Example 266]	160
C[C@]1(C(=O)Nc2cc3cc(C4(CO)CCC4)n(C[C@@H](O)CO)c3cc2F)COc2cc3c(cc21)OC(F)(F)O3 [Example 134]	109
COc1ccc2c(c1)O[C@@H](c1ccc(C(=O)O)cc1)C[C@H]2NC(=O)C1(C)COc2c1ccc1c2OC(F)(F)O1 (stereo partly shown) [Example 39]	106
COc1ccc2c(c1)O[C@@H](c1ccc(C(=O)Nc3ccccc3O)cn1)C[C@H]2NC(=O)[C@@]1(C)COc2cc3c(cc21)OC(F)(F)O3 [Example 208]	103
C[C@]1(C(=O)Nc2cc(Br)cn(C[C@@H](O)CO)c2=O)COc2cc3c(cc21)OC(F)(F)O3 [Example 98]	143
COC(=O)c1cccc(-n2nc(C3CC3)cc(NC(=O)C3(C)COc4cc5c(cc43)OC(F)(F)O5)c2=O)c1 (stereo not shown) [Example 40]	132
CC1(C)OC[C@H]([C@H](O)Cn2nc(-c3ccccc3)cc(NC(=O)[C@@]3(C)COc4cc5c(cc43)OC(F)(F)O5)c2=O)O1 [Example 106]	18
C[C@@]1(C(=O)Nc2cc(C3CC3)nn(-c3ccc(C(=O)O)cc3)c2=O)COc2cc3c(cc21)OC(F)(F)O3 [Example 31]	7
C[C@@]1(C(=O)N[C@@H]2C[C@H](c3ccc(C(=O)O)cc3)Oc3ccccc32)CCc2cc3c(cc21)OC(F)(F)O3 (single isomer, unassigned) [Example 58]	104
C[C@]1(C(=O)N[C@H]2C[C@@H]([C@H]3CC[C@H](C(=O)O)CC3)Oc3cc(OC(F)F)ccc32)COc2cc3c(cc21)OC(F)(F)O3 [Example 163]	75
COc1ccc2c(c1)O[C@@H](c1ccc(C(=O)N3C[C@H](O)[C@@H](O)C3)cn1)C[C@H]2NC(=O)[C@@]1(C)COc2cc3c(cc21)OC(F)(F)O3 [Example 249]	110
CC1(C(=O)N[C@@H]2C[C@H](c3cccc(C(=O)O)c3)Oc3ccccc32)COc2cc3c(cc21)OC(F)(F)O3 (stereo partly shown) [Example 21]	162
CC(C)(CO)[C@@H]1Cc2cc(NC(=O)[C@@]3(C)COc4cc5c(cc43)OC(F)(F)O5)c(F)cc2N1C[C@@H](O)CO (single isomer, unassigned) [Example 141]	39
COc1ccc2c(c1)O[C@@H](c1ccc(C(=O)O)cc1)C[C@H]2NC(=O)C1(C)COc2cc3c(cc21)OC(F)(F)O3 (stereo partly shown) [Example 16]	150
CC1(C(=O)Nc2cc(C3CC3)nn(-c3ccc(C(=O)O)cc3)c2=O)COc2cc3c(cc21)OC(F)(F)O3 (stereo not shown) [Example 30]	122
